Molecular target: T1, human iRhom2, endogenously expressed (human, UniProt Q6PJF5 1-856)
T1 sequence: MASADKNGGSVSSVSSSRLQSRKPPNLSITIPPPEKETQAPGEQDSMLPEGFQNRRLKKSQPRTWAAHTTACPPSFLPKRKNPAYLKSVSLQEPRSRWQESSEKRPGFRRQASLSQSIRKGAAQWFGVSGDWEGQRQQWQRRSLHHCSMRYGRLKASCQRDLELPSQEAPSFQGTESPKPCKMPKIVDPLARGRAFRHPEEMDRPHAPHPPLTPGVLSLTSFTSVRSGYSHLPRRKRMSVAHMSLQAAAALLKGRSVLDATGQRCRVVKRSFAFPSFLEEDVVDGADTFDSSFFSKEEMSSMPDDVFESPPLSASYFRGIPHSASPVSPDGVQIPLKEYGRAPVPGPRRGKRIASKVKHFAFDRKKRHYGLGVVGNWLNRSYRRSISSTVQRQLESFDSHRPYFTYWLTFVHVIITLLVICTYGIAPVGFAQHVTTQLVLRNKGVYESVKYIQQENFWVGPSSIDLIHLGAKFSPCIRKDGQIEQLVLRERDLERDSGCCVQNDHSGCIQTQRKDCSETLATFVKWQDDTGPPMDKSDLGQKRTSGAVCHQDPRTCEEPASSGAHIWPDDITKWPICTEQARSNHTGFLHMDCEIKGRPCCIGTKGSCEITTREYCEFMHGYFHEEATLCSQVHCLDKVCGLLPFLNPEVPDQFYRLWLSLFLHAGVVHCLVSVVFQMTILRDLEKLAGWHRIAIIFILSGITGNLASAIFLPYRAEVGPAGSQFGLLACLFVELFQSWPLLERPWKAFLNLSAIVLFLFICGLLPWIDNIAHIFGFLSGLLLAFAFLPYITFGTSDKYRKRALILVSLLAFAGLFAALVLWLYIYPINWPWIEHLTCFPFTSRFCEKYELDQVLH
Assay: cell-based or functional assay
Would you please tag the item TRUE when its PMA-induced TNFα release from U-937 cells, percent inhibition, 1 µg/ml is 80% or above, and FALSE when it is below?

antibody 42 (antibody, V domains shown, mouse IgG, kappa light chain; also called clone #42; purified antibody 42) VH: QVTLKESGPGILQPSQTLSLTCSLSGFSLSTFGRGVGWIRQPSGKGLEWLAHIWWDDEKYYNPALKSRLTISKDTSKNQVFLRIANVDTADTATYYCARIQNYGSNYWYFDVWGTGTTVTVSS VL: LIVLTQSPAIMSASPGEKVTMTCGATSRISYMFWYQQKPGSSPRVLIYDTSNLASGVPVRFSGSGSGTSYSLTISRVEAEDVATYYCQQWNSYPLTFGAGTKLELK    TRUE
antibody 34 (antibody, V domains shown, mouse IgG, kappa light chain; also called clone #34; purified antibody 34) VH: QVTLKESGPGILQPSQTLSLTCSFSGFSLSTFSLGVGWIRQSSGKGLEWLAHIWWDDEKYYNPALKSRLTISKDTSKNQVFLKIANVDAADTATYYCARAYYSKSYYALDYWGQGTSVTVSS VL: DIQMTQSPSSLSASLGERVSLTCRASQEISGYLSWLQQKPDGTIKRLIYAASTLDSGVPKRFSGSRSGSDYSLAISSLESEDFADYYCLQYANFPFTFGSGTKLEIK    FALSE
antibody 44 (antibody, V domains shown, mouse IgG, kappa light chain; also called clone #44; purified antibody 44) VH: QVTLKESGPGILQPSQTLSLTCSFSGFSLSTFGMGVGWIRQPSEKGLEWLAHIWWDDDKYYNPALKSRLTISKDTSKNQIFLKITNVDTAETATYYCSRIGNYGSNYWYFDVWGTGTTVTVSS VL: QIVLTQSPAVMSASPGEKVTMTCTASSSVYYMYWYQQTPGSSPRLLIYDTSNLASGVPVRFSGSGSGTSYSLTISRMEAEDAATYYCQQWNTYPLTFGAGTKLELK    FALSE
antibody 16 (antibody, V domains shown, mouse IgG, kappa light chain; also called clone #16; purified antibody 16) VH: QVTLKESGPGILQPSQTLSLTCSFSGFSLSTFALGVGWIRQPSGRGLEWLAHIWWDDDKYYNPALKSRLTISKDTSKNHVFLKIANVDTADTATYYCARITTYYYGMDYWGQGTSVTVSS VL: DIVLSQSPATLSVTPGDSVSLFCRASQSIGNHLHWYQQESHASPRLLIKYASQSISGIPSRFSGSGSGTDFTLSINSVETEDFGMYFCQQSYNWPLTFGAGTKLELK    TRUE
antibody 5 (antibody, V domains shown, mouse IgG, kappa light chain; also called clone #5; purified antibody 5) VH: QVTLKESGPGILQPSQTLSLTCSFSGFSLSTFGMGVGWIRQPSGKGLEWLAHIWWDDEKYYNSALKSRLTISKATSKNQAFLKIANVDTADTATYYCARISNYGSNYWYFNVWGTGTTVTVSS VL: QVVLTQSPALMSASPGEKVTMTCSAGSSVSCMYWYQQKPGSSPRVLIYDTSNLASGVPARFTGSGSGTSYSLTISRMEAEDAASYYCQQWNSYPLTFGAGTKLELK    FALSE
